- Test details: Metabolic stability in […] mouse liver microsomes assessed as half-life at 20 uM measured after 2 hrs by UPLC-MS analysis
- Assay type: ADME, Microsome
Quantity kind: half-life at 20 µM (min)

Solved entries (count: 2):
Cc1ccc(-c2nc3ncccc3o2)cc1NC(=O)c1cc([N+](=O)[O-])ccc1Cl ... 1.2
Cc1ccc(-c2nc3ccccc3s2)cc1NC(=O)c1cnccc1Cl ... 12

[I] O=C(Nc1cccc(-c2nc3ccccc3s2)c1)c1cc([N+](=O)[O-])ccc1Cl
[II] Cc1ccc(-c2nc3ccccc3s2)cc1NC(=O)c1cc([N+](=O)[O-])ccc1F
[III] O=C(Nc1cccc(-c2nc3ccccc3s2)n1)c1cnccc1Cl
Arrange the 3 entries by half-life at 20 µM so the values rise. // ordering of labels required in reply
III, I, II
(III: 2 min, I: 11 min, II: 21 min)
